The entries below are paired with their reported pKi.
tested.system: B.subtilis pol IIIC (Bacillus subtilis)
Sequence (P13267 whole entry): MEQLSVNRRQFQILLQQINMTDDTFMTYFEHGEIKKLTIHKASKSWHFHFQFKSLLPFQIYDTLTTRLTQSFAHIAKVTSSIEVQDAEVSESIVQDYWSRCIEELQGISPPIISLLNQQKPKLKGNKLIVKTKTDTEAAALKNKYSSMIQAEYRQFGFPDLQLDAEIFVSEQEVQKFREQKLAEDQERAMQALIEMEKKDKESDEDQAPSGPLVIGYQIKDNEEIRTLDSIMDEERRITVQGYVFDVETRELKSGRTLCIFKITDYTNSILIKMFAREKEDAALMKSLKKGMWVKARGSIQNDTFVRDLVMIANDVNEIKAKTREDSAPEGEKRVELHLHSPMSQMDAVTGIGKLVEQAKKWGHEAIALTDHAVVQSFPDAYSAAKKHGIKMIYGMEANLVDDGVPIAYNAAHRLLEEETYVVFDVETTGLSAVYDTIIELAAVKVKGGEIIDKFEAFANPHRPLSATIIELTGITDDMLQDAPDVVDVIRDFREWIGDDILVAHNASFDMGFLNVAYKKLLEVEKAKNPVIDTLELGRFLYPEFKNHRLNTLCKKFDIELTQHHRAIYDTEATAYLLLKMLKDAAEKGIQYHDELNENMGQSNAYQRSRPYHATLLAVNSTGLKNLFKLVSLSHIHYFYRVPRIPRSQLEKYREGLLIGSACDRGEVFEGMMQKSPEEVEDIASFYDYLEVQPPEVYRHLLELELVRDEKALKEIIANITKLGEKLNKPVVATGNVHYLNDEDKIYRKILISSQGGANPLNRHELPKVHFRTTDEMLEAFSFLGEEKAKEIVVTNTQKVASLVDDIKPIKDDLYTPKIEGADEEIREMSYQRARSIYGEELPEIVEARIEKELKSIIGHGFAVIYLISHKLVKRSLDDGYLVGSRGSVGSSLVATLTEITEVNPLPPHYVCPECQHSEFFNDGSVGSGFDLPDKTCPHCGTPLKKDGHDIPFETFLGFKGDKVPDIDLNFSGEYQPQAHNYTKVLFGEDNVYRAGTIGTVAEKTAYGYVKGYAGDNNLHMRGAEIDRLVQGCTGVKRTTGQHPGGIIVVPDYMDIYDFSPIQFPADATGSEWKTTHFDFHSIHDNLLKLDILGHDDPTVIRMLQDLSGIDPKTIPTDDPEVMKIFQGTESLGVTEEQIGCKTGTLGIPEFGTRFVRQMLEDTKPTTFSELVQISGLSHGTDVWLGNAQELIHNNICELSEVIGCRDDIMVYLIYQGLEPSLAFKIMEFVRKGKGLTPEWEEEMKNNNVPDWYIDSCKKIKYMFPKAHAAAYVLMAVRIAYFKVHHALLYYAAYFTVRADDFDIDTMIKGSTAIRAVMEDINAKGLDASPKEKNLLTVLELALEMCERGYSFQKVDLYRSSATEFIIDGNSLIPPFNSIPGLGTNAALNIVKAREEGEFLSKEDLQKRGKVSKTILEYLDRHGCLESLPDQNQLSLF
experimental.protocol: biochemical
condition.parameters: truncated assay, apparent inhibitor constant; read-out: K1 B.subtilis pol IIIC
pKi: −log10 of the molar value.
quantity.measured: pKi

CCc1cc(Nc2cc(=O)n(CCCCN3CCOCC3)c(=O)[nH]2)ccc1C    7.32
CCc1cc(Nc2cc(=O)n(CCCCN3CCC(O)(c4ccc(Cl)cc4)CC3)c(=O)[nH]2)ccc1C    7.60
CCc1cc(Nc2cc(=O)n(CCCCN3CCN(c4ccc(F)cc4)CC3)c(=O)[nH]2)ccc1C    7.15
CCc1cc(Nc2cc(=O)n(CCCCN3CCSCC3)c(=O)[nH]2)ccc1C    7.17
CCc1cc(Nc2cc(=O)n(CCCCN3CCN(C(=O)c4ccco4)CC3)c(=O)[nH]2)ccc1C    7.37
CCc1cc(Nc2cc(=O)n(CCCCN3CCC(O)(c4ccc(Cl)c(C(F)(F)F)c4)CC3)c(=O)[nH]2)ccc1C    7.49
CCc1cc(Nc2cc(=O)n(CCCCN3CCN(c4ncccn4)CC3)c(=O)[nH]2)ccc1C    7.37

----------
experimental.protocol: Pharmacokinetics in mice (plasma concentration by HPLC)
Type: in vivo
condition.parameters: mouse, plasma, sc, 20 mg/kg, saline solution
quantity.measured: half-life (h)

CCc1cc(Nc2cc(=O)n(CCCCN3CCOCC3)c(=O)[nH]2)ccc1C.Cl    2.48

----------
Test system: E. fecalis
quantity.measured: MIC (µg/mL)

CCc1cc(Nc2cc(=O)n(CCN3CCN(C(=O)c4ccccc4)CC3)c(=O)[nH]2)ccc1C    10
CCc1cc(Nc2cc(=O)n(CCCC#N)c(=O)[nH]2)ccc1C    5
CCc1cc(Nc2cc(=O)n(C/C=C/CO)c(=O)[nH]2)ccc1C    5
CCc1cc(Nc2cc(=O)n(CCCCO)c(=O)[nH]2)ccc1C [HB-EMAU, reference compound]    5

----------
The entries below are paired with their reported MIC.
Tested on: E. fecium
quantity.measured: MIC

CCc1cc(Nc2cc(=O)n(CCCCN3CCN(C(=O)c4ccco4)CC3)c(=O)[nH]2)ccc1C [Compound 40]    10 µg/mL
CCc1cc(Nc2cc(=O)n(CCCCN3CCSCC3)c(=O)[nH]2)ccc1C [Compound 36]    5 µg/mL
CCc1cc(Nc2cc(=O)n(CCCCNCCCCn3cc(C(=O)O)c(=O)c4cc(F)c(Cl)cc43)c(=O)[nH]2)ccc1C [Compound 74]    20 µg/mL
CCc1cc(Nc2cc(=O)n(CCCCN3CCN(c4ccc(F)cc4)CC3)c(=O)[nH]2)ccc1C [Compound 46]    5 µg/mL
CCc1cc(Nc2cc(=O)n(CCCC(C)=O)c(=O)[nH]2)ccc1C [Compound 8]    5 µg/mL
CCc1cc(Nc2cc(=O)n(CCCCCN3CC=C(c4ccc(Cl)cc4)CC3)c(=O)[nH]2)ccc1C [Compound 76]    80 µg/mL
CCc1cc(Nc2cc(=O)n(CCCCOC(=O)N3CCOCC3)c(=O)[nH]2)ccc1C [Compound 47]    5 µg/mL
CCc1cc(Nc2cc(=O)n(CCCCCN3CCc4c([nH]c5ccc(OC)cc45)C3C(=O)O)c(=O)[nH]2)ccc1C (stereo not shown) [Compound 68]    80 µg/mL
CCc1cc(Nc2cc(=O)n(CCCCCN3CC=C(c4cccs4)CC3)c(=O)[nH]2)ccc1C [Compound 72]    40 µg/mL
CCc1cc(Nc2cc(=O)n(CCCCN3CCC(O)(c4ccc(Cl)cc4)CC3)c(=O)[nH]2)ccc1C [Compound 38]    5 µg/mL
CCc1cc(Nc2cc(=O)n(CCCCOC(C)=O)c(=O)[nH]2)ccc1C [Compound 22]    5 µg/mL
CCc1cc(Nc2cc(=O)n(CCOCCO)c(=O)[nH]2)ccc1C [Compound 29]    5 µg/mL
CCc1cc(Nc2cc(=O)n(CCCCN3CCN(c4ccc(C(F)(F)F)cc4[N+](=O)[O-])CC3)c(=O)[nH]2)ccc1C [Compound 64]    80 µg/mL
CCc1cc(Nc2cc(=O)n(CCCCCN3CC=C(c4cccc5ccsc45)CC3)c(=O)[nH]2)ccc1C [Compound 73]    > 80 µg/mL
CCc1cc(Nc2cc(=O)n(CCCCC#N)c(=O)[nH]2)ccc1C [Compound 20]    5 µg/mL
CCc1cc(Nc2cc(=O)n(CCCN3CCOCC3)c(=O)[nH]2)ccc1C [Compound 24]    5 µg/mL
